# ASSAYED TARGET: hepatic lipase (HL) (Homo sapiens (Human), UniProt P11150)
# Sequence (P11150 23-499, species assumed): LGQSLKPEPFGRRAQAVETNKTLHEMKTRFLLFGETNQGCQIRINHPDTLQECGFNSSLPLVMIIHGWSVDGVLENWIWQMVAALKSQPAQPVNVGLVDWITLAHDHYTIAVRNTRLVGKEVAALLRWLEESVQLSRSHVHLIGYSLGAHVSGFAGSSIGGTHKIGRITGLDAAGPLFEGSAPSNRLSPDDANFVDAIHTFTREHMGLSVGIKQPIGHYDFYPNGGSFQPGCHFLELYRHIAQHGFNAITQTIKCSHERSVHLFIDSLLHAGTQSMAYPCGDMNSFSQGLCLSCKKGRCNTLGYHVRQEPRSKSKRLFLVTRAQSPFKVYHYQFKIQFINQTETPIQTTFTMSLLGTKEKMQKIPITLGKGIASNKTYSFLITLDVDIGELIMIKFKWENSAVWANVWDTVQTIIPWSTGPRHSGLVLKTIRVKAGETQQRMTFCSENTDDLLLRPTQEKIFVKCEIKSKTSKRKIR
# PROCEDURE DETAILS: HL assay: hepatic lipase activity with fluorescent substrate A10070 in DMPG vesicles
# Type: biochemical
ASSAY METRIC: log10 of IC50 (log10 of the value in nM)
// units: nM (pre-log); metric: IC50; scale: log10

INSERT INTO results (molecule, assay_metric, result) VALUES
  ('C[C@H]1CN(C(=O)c2ccc(-c3ccc4nc(C(C(=O)NCCS(N)(=O)=O)S(=O)(=O)CC5CC5)sc4c3)cc2)CCO1 (some centres unmarked) [Example B251]', 'log10 of IC50', 2.56),
  ('CS(=O)(=O)C(C(=O)NCCS(N)(=O)=O)c1nc2cc(-c3cnn(CCN4CCOCC4)c3)ccc2s1 (centres unmarked) [Example B91]', 'log10 of IC50', 3.26),
  ('CS(=O)(=O)C(C(=O)NCCS(N)(=O)=O)c1nc2ccc(-c3c[nH]nc3C(F)(F)F)cc2s1 (centres unmarked) [Example B78]', 'log10 of IC50', 1.83),
  ('CS(=O)(=O)C(C(=O)NCCS(N)(=O)=O)c1nc2ccc(-c3cccc(Cl)c3)cc2s1 (centres unmarked) [Example B208]', 'log10 of IC50', -0.10),
  ('CC1(O)CN(C(=O)c2ccc(-c3ccc4nc(C(C(=O)NCCS(N)(=O)=O)S(=O)(=O)Cc5cccc(C(F)(F)F)c5)sc4c3)cc2)C1 (centres unmarked) [Example B360]', 'log10 of IC50', 2.67);

Give log10 of IC50 for each of the items listed below.
1. CS(=O)(=O)C(C(=O)NCCS(N)(=O)=O)c1nc2ccc(-c3ccc(C(=O)N4CC(F)C4)cc3)cc2s1 (centres unmarked) [Example B330]
2. COCCN(C)C(=O)c1ccc(-c2ccc3nc(C(C(=O)NCCS(N)(=O)=O)S(=O)(=O)CC4CC4)sc3c2)cc1F (centres unmarked) [Example B247]
3. COCCOc1ccc(-c2ccc3nc(C(C(=O)NCCS(N)(=O)=O)S(C)(=O)=O)sc3c2)cc1 (centres unmarked) [Example B48]
4. CS(=O)(=O)C(C(=O)NCCS(N)(=O)=O)c1nc2ccc(-c3ccc(C(=O)NC4CC4)cc3)cc2s1 (centres unmarked) [Example B216]

Resp:
1. 1.67
2. 2.10
3. 1.04
4. 2.19

Give log10 of IC50 for each of the items listed below.
1. CC(C)(C)OC(=O)c1ccc(-c2ccc3nc(C(C(=O)NCCS(N)(=O)=O)S(=O)(=O)Cc4ccccc4)sc3c2)cc1 (centres unmarked) [Example B276]
2. CC(C)(C)OC(=O)N1CCC(n2cc(-c3ccc4nc(C(C(=O)NCCS(N)(=O)=O)S(C)(=O)=O)sc4c3)cn2)CC1 (centres unmarked) [Example B76]
3. COCCS(=O)(=O)C(C(=O)NCc1nnc(C)o1)c1nc2cc(F)c(-c3ccc(C(=O)N4CC(C)(O)C4)cc3)cc2s1 (centres unmarked) [Example B260]

Resp:
1: -0.10; 2: 1.32; 3: 3.13

###

# ASSAYED TARGET: UniProtKB Q9Y5X9
# Sequence (Q9Y5X9 21-500): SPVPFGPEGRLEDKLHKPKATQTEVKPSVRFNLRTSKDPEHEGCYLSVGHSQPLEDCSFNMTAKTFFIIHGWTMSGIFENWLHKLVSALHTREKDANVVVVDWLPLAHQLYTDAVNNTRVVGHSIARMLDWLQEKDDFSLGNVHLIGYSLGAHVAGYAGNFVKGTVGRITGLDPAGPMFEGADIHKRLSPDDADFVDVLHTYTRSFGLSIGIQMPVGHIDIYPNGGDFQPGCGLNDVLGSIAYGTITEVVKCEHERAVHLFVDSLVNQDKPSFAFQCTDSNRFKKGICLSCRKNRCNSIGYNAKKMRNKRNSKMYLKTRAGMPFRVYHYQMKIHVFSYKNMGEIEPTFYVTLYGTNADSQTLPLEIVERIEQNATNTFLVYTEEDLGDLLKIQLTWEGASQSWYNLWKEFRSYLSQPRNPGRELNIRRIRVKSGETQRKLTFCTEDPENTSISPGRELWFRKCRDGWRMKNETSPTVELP
# PROCEDURE DETAILS: EL assay: endothelial lipase activity with fluorescent substrate A10070 in DMPG vesicles
# Format: biochemical
Please go through the items and note down their pIC50.
Numbers only, as −log10 of the molar value.

Please review the entries below; each comes with its answer.
INSERT INTO assay_data (molecule, assayed_target, assay_metric, result) VALUES
  ('CC1(O)CN(C(=O)c2ccc(-c3ccc4nc(C(C(N)=O)S(=O)(=O)Cc5ccc(OC(F)(F)F)cc5)sc4c3)cc2)C1 (stereo not shown) [Example B362]', 'UniProtKB Q9Y5X9', 'pIC50', 6.80),
  ('NS(=O)(=O)CCNC(=O)C(c1nc2ccc(-c3ccnc(O)c3F)cc2s1)S(=O)(=O)CCC(F)(F)F (stereo not shown) [Example B375]', 'UniProtKB Q9Y5X9', 'pIC50', 7.85),
  ('NS(=O)(=O)c1cccc(CNC(=O)C(c2nc3ccc(-c4ccncc4Cl)cc3s2)S(=O)(=O)Cc2ccccc2)c1 (stereo not shown) [Example B278]', 'UniProtKB Q9Y5X9', 'pIC50', 6.80),
  ('NS(=O)(=O)CCNC(=O)C(c1nc2ccc(-c3ccc4c(c3)CNC4=O)cc2s1)S(=O)(=O)Cc1ccc(C(F)(F)F)cc1 (stereo not shown) [Example B358]', 'UniProtKB Q9Y5X9', 'pIC50', 8.43),
  ('Cc1cc2nc(C(C(=O)NCCS(N)(=O)=O)S(=O)(=O)Cc3ccccc3)sc2cc1-c1ccc(C(=O)N2CCCCC2)cc1 (stereo not shown) [Example B348]', 'UniProtKB Q9Y5X9', 'pIC50', 9.00);

Give pIC50 for each of the items listed below.
1. COCCS(=O)(=O)C(C(=O)NCCS(N)(=O)=O)c1nc2ccc(-c3ccc(C(=O)N4CC[C@H](OC)C4)cc3)cc2s1 (stereo partly shown) [Example B306]
2. COC1CN(C(=O)c2ccc(-c3ccc4nc(C(C(=O)NCCS(N)(=O)=O)S(=O)(=O)Cc5ccc(OC(F)(F)F)cc5)sc4c3)cc2)C1 (stereo not shown) [Example B300]
3. COCc1cccc(-c2ccc3nc(C(C(=O)NCCS(N)(=O)=O)S(C)(=O)=O)sc3c2)c1 (stereo not shown) [Example B215]
4. COCCn1cc(-c2ccc3nc(C(C(=O)NCCS(N)(=O)=O)S(=O)(=O)CC4CC4)sc3c2)cn1 (stereo not shown) [Example B165]
5. CS(=O)(=O)C(C(=O)NCCS(N)(=O)=O)c1nc2cc(-c3cnoc3)ccc2s1 (stereo not shown) [Example B373]
6. COCCOc1ccc(-c2ccc3sc(C(C(=O)NCCS(N)(=O)=O)S(C)(=O)=O)nc3c2)cc1 (stereo not shown) [Example B370]
7. NS(=O)(=O)CCNC(=O)C(c1nc2ccc(-c3ccc(C(=O)N4CCOCC4)cc3)cc2s1)S(=O)(=O)Cc1ccccc1 (stereo not shown) [Example B102]
8. COCCNC(=O)c1ccc(-c2ccc3nc(C(C(=O)NCCS(N)(=O)=O)S(=O)(=O)Cc4ccc(OC(F)(F)F)cc4)sc3c2)cc1 (stereo not shown) [Example B282]

Resp:
1. 8.42
2. 8.26
3. 8.36
4. 7.43
5. 8.48
6. 8.74
7. 7.74
8. 8.59

Give pIC50 for each of the items listed below.
1. CC(C)S(=O)(=O)C(C(=O)NCCS(N)(=O)=O)c1nc2ccc(-c3cccc(C(=O)N(C)C)c3)cc2s1 (stereo not shown) [Example B272]
2. CS(=O)(=O)C(C(=O)NCCS(N)(=O)=O)c1nc2cc(-c3ccc(C(=O)N4CC(F)(F)C4)cc3)ccc2s1 (stereo not shown) [Example B321]

Resp:
7.45
9.22

###

# ASSAYED TARGET: UniProt:Q9Y5X9
# PROCEDURE DETAILS: EL assay: endothelial lipase activity with fluorescent substrate A10070 in DMPG vesicles
# Format: biochemical
# CONDITION INFO: EL from conditioned media of HT-1080 cells; 30 min incubation with compound at 37° C.; A10070/DMPG vesicles
Please go through the items and note down their pIC50.
Numbers only, as −log10 of the molar value.

INSERT INTO assay_data (compound, assay_metric, result) VALUES
  ('CS(=O)(=O)C(C(=O)NCCS(N)(=O)=O)c1nc2ccc(-c3ccc(O)nc3)cc2s1 (stereo not shown) [Example B187]', 'pIC50', 7.80),
  ('Cc1nnc(CNC(=O)C(NC(=O)NCc2ccccc2)c2nc3ccc(-c4ccc(F)cc4)cc3s2)o1 (stereo not shown) [Example A9]', 'pIC50', 7.30);

Would you kindly look at the next entry?
Req: Record lookup: for UniProt:Q9Y5X9, what pIC50 belongs to Cc1cc2nc(C(C(=O)NCCS(N)(=O)=O)S(C)(=O)=O)sc2cc1-c1cnn(C)c1 (stereo not shown) [Example B203] ?
Resp: 8.00

###

# ASSAYED TARGET: hepatic lipase (HL) (Homo sapiens (Human), UniProt P11150)
# PROCEDURE DETAILS: HL assay: hepatic lipase activity with fluorescent substrate A10070 in DMPG vesicles
# Assay type: biochemical
ASSAY METRIC: pIC50
One number for each entry, as −log10 of the molar value.

INSERT INTO results (compound, assayed_target, result) VALUES
  ('NS(=O)(=O)CCNC(=O)C(c1nc2ccc(-c3ccc(C(=O)N4CCOCC4)cc3)cc2s1)S(=O)(=O)CC1CC1 (stereo not shown) [Example B111]', 'hepatic lipase (HL) (Homo sapiens (Human), UniProt P11150)', 5.84);

Would you kindly look at the next entry?
Req: Reported pIC50 for CS(=O)(=O)C(C(=O)NCCS(N)(=O)=O)c1nc2cc(-c3ccc(C(=O)N4CC(F)(F)C4)cc3)ccc2s1 (stereo not shown) [Example B321] : what is it?
Resp: 6.76

Source listed as patent US8987314B2.
